Data provenance: patent US7723366B2

# tgt: malonyl-CoA decarboxylase prepared from rat heart (Rattus norvegicus, UniProt Q920F5)
# Sequence (Q920F5 39-492): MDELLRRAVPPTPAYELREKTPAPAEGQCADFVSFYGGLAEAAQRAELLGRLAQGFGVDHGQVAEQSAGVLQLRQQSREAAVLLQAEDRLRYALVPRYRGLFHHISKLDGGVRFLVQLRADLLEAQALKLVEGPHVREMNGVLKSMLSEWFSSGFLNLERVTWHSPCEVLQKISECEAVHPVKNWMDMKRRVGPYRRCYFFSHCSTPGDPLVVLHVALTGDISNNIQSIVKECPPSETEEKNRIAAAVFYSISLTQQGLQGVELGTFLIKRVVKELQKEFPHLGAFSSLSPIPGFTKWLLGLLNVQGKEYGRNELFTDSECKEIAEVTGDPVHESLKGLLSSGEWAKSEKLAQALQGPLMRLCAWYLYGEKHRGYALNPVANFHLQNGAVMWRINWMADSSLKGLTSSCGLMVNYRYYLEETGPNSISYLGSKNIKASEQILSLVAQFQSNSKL
pIC50: −log10 of the molar value.
measurement kind: pIC50

Previously resolved entries follow.
CCN(C(=O)Nc1ccccc1)c1ccc2nc(S)sc2c1 [Table 3; entry 5] :: 7.27
CCCN(C(=O)N(CC(C)C)CC(C)C)c1ccc2nc(S)sc2c1 [Table 5; entry 5] :: 6.58
O=S(=O)(c1ccc2sc(S)nc2c1)N1CCCCC1 [Table 7; entry 2] :: 6.33

A: CCCCCCNc1ccc2nc(S)sc2c1 [Table 2; entry 1, 6-(hexylamino)-1,3-benzothiazole-2-thiol]
B: S=C(Nc1ccccc1)N(Cc1ccccc1)c1ccc2nc(S)sc2c1 [Table 3; entry 8]
Lower value of pIC50 belongs to which: A or B ? Record your answer as the label of the chosen record.
A
(A: 6.27, B: 6.62)

A: Sc1nc2ccc(NCc3ccccc3)cc2s1 [Table 2; entry 3]
B: O=C(COc1ccccc1)N(Cc1ccccc1)c1ccc2nc(S)sc2c1 [Table 4; entry 1]
Of A and B , whose reported pIC50 is the larger number? Lab log: write the label of the selected item as the result.
B
